# TARGET_DESC: GST-LXRβ ligand-binding domain (Homo sapiens, UniProt P55055)
# Construct: amino acids 156-461; NP009052; made in house; host or cells: E. coli
# Sequence (P55055 156-460 limits assumed): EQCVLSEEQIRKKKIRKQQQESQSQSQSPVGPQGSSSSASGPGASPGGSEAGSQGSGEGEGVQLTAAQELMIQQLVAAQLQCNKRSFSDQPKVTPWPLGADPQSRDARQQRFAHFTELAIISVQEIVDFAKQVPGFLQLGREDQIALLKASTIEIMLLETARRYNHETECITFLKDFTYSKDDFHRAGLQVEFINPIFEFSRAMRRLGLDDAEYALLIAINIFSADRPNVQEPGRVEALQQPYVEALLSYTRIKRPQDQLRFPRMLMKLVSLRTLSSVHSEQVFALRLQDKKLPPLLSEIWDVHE
# EXPERIMENT_DESCRIPTION: TR-FRETβ activity assay (NCoA3 coactivator peptide recruitment)
# Format: biochemical
# CONDITION_PARAMETERS: 1 μM 24(S)-25-epoxycholesterol prestimulation
This section presents compounds with their documented EC50 values.

Examples from the recorded data:
// EC50 lookup, compound = N#Cc1cccc(C#N)c1-c1c(-c2cccc(-c3ccc(C(=O)O)cc3Cl)c2)n(S(=O)(=O)c2ccc(C(F)(F)F)nc2)c2ccc(F)cc12 , result: < 100 nM

// EC50 lookup, compound = Cc1ccc(S(=O)(=O)n2c(-c3cccc(-c4cc(F)c(CO)c(S(C)(=O)=O)c4)c3)c(-c3ccsc3C#N)c3cc(F)ccc32)cc1 , result: < 100 nM

// EC50 lookup, compound = Cc1ccc(S(=O)(=O)n2c(-c3cccc(-c4ccc(C(=O)O)cc4Cl)c3)c(-c3cc(C)ccc3C#N)c3cc(F)ccc32)cc1 , result: < 100 nM

// EC50 lookup, compound = Cc1ccc(S(=O)(=O)n2c(-c3cccc(-c4ccc5c(C(=O)O)n[nH]c5c4)c3)c(-c3ccsc3C#N)c3cc(F)ccc32)cc1 , result: 100 to 1000 nM

// EC50 lookup, compound = COc1cc(F)cc2c(-c3ccsc3C#N)c(-c3cccc(-c4ccc(C(=O)O)cc4)c3)n(S(=O)(=O)c3ccc(C)cc3)c12 , result: < 100 nM

Further cases:
// EC50 lookup, compound = N#Cc1cccc(C#N)c1-c1c(-c2cccc(-c3ccc(C(=O)O)cc3Cl)c2)n(S(=O)(=O)c2ccc(C(F)F)cc2)c2ccc(F)cc12 , result: < 100 nM
